target-desc: DNA-Polymerase-beta (Homo sapiens)
Construct: Die Isolierung der Enzyme und deren Aktivitätsbestimmung erfolgte entsprechend der Methode von Matthes et al; from tissue
assay-protocol: Effect of modified nucleoside triphosphates on cellular DNA polymerase beta
Type: biochemical
settings: read-out: ID₅₀ (µM) DNA-Polymerase- beta
I'd be grateful if you could share measured IC50 for these entries.

// query What value of IC50 has been recorded for this entry: Cc1cn([C@H]2CC[C@@H](COP(=O)(O)OP(=O)(O)OP(=O)(O)O)O2)c(=O)nc1N [ddMetCTP]
// result > 100 µM

// query What value of IC50 has been recorded for this entry: Cc1cn([C@H]2C[C@H](F)[C@@H](COP(=O)(O)OP(=O)(O)OP(=O)(O)O)O2)c(=O)nc1N [FMetdCTP]
// result 1 µM

// query What value of IC50 has been recorded for this entry: Cc1cn([C@H]2C[C@H](N)[C@@H](COP(=O)(O)OP(=O)(O)OP(=O)(O)O)O2)c(=O)nc1N [NH₂MetdCTP]
// result > 200 µM

----------
I'd be grateful if you could share measured HBsAg for these entries.
Test system: HBsAg-Sekretion von Hep G2 (2.2.15)-Zellen
assay-protocol: Inhibition of HBsAg secretion of Hep G2 (2.2.15) cells (solid-phase radioimmunoassay of the medium)
Format: cell-based, HBV
settings: nucleoside 0,003 µM; % of control without nucleoside (100)
Reply with just the number (in %).

// query What value of HBsAg has been recorded for this entry: Nc1ccn([C@H]2C=C[C@@H](CO)O2)c(=O)n1 [2',3'-Didehydro-2',3'-didesoxycytidin]
// result 107

// query What value of HBsAg has been recorded for this entry: Cc1cn([C@H]2C[C@H](N)[C@@H](CO)O2)c(=O)nc1N [2′,3′-Didesoxy-3′-amino-5-methylcytidin]
// result 72

// query What value of HBsAg has been recorded for this entry: Cc1cn([C@H]2C[C@H](Cl)[C@@H](CO)O2)c(=O)nc1N [2′,3′-Didesoxy-3′chlor-5-methylcytidin, 3′-Chlor-2′,3′-didesoxy-5-methylcytidin]
// result 96

// query What value of HBsAg has been recorded for this entry: `Nc1nc(N)c2ncn([C@H]3C[C@H](F)[C@@H](CO)O3)c2n1`
// result 91

// query What value of HBsAg has been recorded for this entry: CCc1cn([C@H]2C[C@H](F)[C@@H](CO)O2)c(=O)nc1N [2',3'-Didesoxy-3'-fluor-5-ethylcytidin]
// result 87

// query What value of HBsAg has been recorded for this entry: Cc1cn([C@H]2C[C@H](F)[C@@H](CO)O2)c(=O)nc1N [2′,3′-Didesoxy-3′-fluor-5-methylcytidin]
// result 74

// query What value of HBsAg has been recorded for this entry: Nc1ncnc2c1ncn2[C@H]1C=C[C@@H](CO)O1 [2′,3′-Didehydro-2′,3′-didesoxyadenosin]
// result 96

// query What value of HBsAg has been recorded for this entry: Cc1cn([C@@H]2O[C@H](CO)[C@@H](O)[C@@H]2O)c(=O)nc1N [Arabinosyl-5-methyl-cytosin, 1-β-D-Arabinofuranosyl-5-methylcytosin]
// result 96

----------
Tested on: Hep G2 (2.2.15)-Zellen
assay-protocol: DNA synthesis of Hep G2 (2.2.15) cells (acid-insoluble radioactivity after 3H-thymidine or 3H-deoxyadenosine)
Format: cell-based, menschlichen
settings: nucleoside 0,01 µM; 4 days, then 24 h label; mean ± SD of five experiments
measured-endpoint: ^3H-DNA (dpm/Kultur)
Reply with just the number (in dpm/Kultur).

// query Param readout = ^3H-DNA; param system = Hep G2 (2.2.15)-Zellen; param query = `Cc1cn([C@@H]2O[C@H](CO)[C@@H](O)[C@@H]2O)c(=O)nc1N` ; response: value
// result 17990

// query Param readout = ^3H-DNA; param system = Hep G2 (2.2.15)-Zellen; param query = Nc1ccn([C@H]2C=C[C@@H](CO)O2)c(=O)n1 [2',3'-Didehydro-2',3'-didesoxycytidin] ; response: value
// result 18410

// query Param readout = ^3H-DNA; param system = Hep G2 (2.2.15)-Zellen; param query = Nc1ncnc2c1ncn2[C@H]1C=C[C@@H](CO)O1 [2′,3′-Didehydro-2′,3′-didesoxyadenosin] ; response: value
// result 17215

// query Param readout = ^3H-DNA; param system = Hep G2 (2.2.15)-Zellen; param query = `Cc1cn([C@H]2C[C@H](Cl)[C@@H](CO)O2)c(=O)nc1N` ; response: value
// result 14820

// query Param readout = ^3H-DNA; param system = Hep G2 (2.2.15)-Zellen; param query = `Cc1cn([C@H]2C[C@H](N)[C@@H](CO)O2)c(=O)nc1N` ; response: value
// result 15445

// query Param readout = ^3H-DNA; param system = Hep G2 (2.2.15)-Zellen; param query = `Nc1nc(N)c2ncn([C@H]3C[C@H](F)[C@@H](CO)O3)c2n1` ; response: value
// result 16820

// query Param readout = ^3H-DNA; param system = Hep G2 (2.2.15)-Zellen; param query = `CCc1cn([C@H]2C[C@H](F)[C@@H](CO)O2)c(=O)nc1N` ; response: value
// result 13855

// query Param readout = ^3H-DNA; param system = Hep G2 (2.2.15)-Zellen; param query = `Cc1cn([C@H]2C[C@H](F)[C@@H](CO)O2)c(=O)nc1N` ; response: value
// result 15060

----------
I'd be grateful if you could share measured ^3H-DNA for these entries.
Tested on: Hep G2 (2.2.15)-Zellen
assay-protocol: DNA synthesis of Hep G2 (2.2.15) cells (acid-insoluble radioactivity after 3H-thymidine or 3H-deoxyadenosine)
Format: cell-based, menschlichen
settings: nucleoside 3,0 µM; 4 days, then 24 h label; mean ± SD of five experiments
Reply with just the number (in dpm/Kultur).

// query What value of ^3H-DNA has been recorded for this entry: `CCc1cn([C@H]2C[C@H](F)[C@@H](CO)O2)c(=O)nc1N`
// result 6640

// query What value of ^3H-DNA has been recorded for this entry: `Cc1cn([C@H]2C[C@H](N)[C@@H](CO)O2)c(=O)nc1N`
// result 2100

// query What value of ^3H-DNA has been recorded for this entry: `Cc1cn([C@H]2C[C@H](Cl)[C@@H](CO)O2)c(=O)nc1N`
// result 10065

// query What value of ^3H-DNA has been recorded for this entry: Nc1ccn([C@H]2C=C[C@@H](CO)O2)c(=O)n1 [2',3'-Didehydro-2',3'-didesoxycytidin]
// result 6535

// query What value of ^3H-DNA has been recorded for this entry: `Cc1cn([C@H]2C[C@H](F)[C@@H](CO)O2)c(=O)nc1N`
// result 2470

// query What value of ^3H-DNA has been recorded for this entry: `Cc1cn([C@@H]2O[C@H](CO)[C@@H](O)[C@@H]2O)c(=O)nc1N`
// result 8470

// query What value of ^3H-DNA has been recorded for this entry: Nc1ncnc2c1ncn2[C@H]1C=C[C@@H](CO)O1 [2′,3′-Didehydro-2′,3′-didesoxyadenosin]
// result 4265

// query What value of ^3H-DNA has been recorded for this entry: `Nc1nc(N)c2ncn([C@H]3C[C@H](F)[C@@H](CO)O3)c2n1`
// result 17740

----------
Tested on: Hep G2 (2.2.15)-Zellen
assay-protocol: DNA synthesis of Hep G2 (2.2.15) cells (acid-insoluble radioactivity after 3H-thymidine or 3H-deoxyadenosine)
Type: cell-based, menschlichen
settings: nucleoside 0,3 µM; 4 days, then 24 h label; mean ± SD of five experiments
Description: Die Testung der antiviralen Wirksamkeit der Nucleoside auf zelluärer Ebene erfolgte an einer menschlichen Hepatoblastom-Zellinie, die mit dem HBV-Genom tranfiziert wurde und sowohl das Oberflächenantigen des Virus (HBsAg) als auch die HBV-DNA permanent produziert und infektiöse Viruspartikel in das Medium abgibt (Hep G2-Zellen, Klon 2.2.15, Sells et al. Proc.Natl.Acad. Sci. 84, 1005 (1987)). […]
measured-endpoint: ^3H-DNA (dpm/Kultur)
Reply with just the number (in dpm/Kultur).

// query What value of ^3H-DNA has been recorded for this entry: Nc1ccn([C@H]2C=C[C@@H](CO)O2)c(=O)n1 [2',3'-Didehydro-2',3'-didesoxycytidin]
// result 14270

// query What value of ^3H-DNA has been recorded for this entry: `Cc1cn([C@H]2C[C@H](Cl)[C@@H](CO)O2)c(=O)nc1N`
// result 13895

// query What value of ^3H-DNA has been recorded for this entry: `Cc1cn([C@@H]2O[C@H](CO)[C@@H](O)[C@@H]2O)c(=O)nc1N`
// result 18600

// query What value of ^3H-DNA has been recorded for this entry: `Cc1cn([C@H]2C[C@H](F)[C@@H](CO)O2)c(=O)nc1N`
// result 13175

// query What value of ^3H-DNA has been recorded for this entry: `Nc1nc(N)c2ncn([C@H]3C[C@H](F)[C@@H](CO)O3)c2n1`
// result 15125

// query What value of ^3H-DNA has been recorded for this entry: `CCc1cn([C@H]2C[C@H](F)[C@@H](CO)O2)c(=O)nc1N`
// result 14130

// query What value of ^3H-DNA has been recorded for this entry: Nc1ncnc2c1ncn2[C@H]1C=C[C@@H](CO)O1 [2′,3′-Didehydro-2′,3′-didesoxyadenosin]
// result 19400

// query What value of ^3H-DNA has been recorded for this entry: `Cc1cn([C@H]2C[C@H](N)[C@@H](CO)O2)c(=O)nc1N`
// result 12160
